Cited source for all entries: ChEMBL document CHEMBL4196011

Experiment: Toxicity in Kunming mouse assessed as maximum tolerated dose administered for 7 consecutive days
Assay type: organism-based
Settings: in vivo
measured metric: MTD at 7 days
Remember to put the unit after the number in your answer.

Quick check: MTD at 7 days of Cl.Cl.NCCCNCC(=O)NCc1cccc2c(=O)cc(-c3cccc4ccccc34)oc12 ? 20 mg/kg

====

Experiment: Toxicity in iv dosed Kunming mouse assessed as maximum tolerated dose administered for 7 consecutive days
Assay type: organism-based
Settings: in vivo
measured metric: MTD at 7 days (mg/kg)
Please respond with the number in mg/kg and leave the unit unwritten.

Quick check: MTD at 7 days of COc1ccc2cc(-c3oc4c(CNCCCCN)cccc4c(=O)c3OC)ccc2c1Br.Cl.Cl ? 50

Now consider a different compound.
Quick check: MTD at 7 days of COc1c(-c2ccc(-c3ccccc3)cc2)oc2c(CNCCCN)cccc2c1=O.Cl.Cl ? 15

====

Tested on: HT-29
Experiment: Antiproliferative activity against human HT-29 cells after 48 hrs by MTT assay
Type: functional, cell-based
Conditions: HT-29, 48 h
measured metric: IC50 (µM)
Please respond with the number in µM and leave the unit unwritten.

Quick check: IC50 of COc1ccc2cc(-c3oc4c(CNCCCCNCCCCN)cccc4c(=O)c3OC)ccc2c1Br ? 21.8

Quick check: IC50 of COc1c(-c2ccc(-c3ccccc3)cc2)oc2c(CNCCCNCCCCN)cccc2c1=O ? 31.4

Quick check: IC50 of COc1ccc2cc(-c3oc4c(CNCCCN)cccc4c(=O)c3OC)ccc2c1Br ? 23.1

Quick check: IC50 of COc1c(-c2ccc(-c3ccccc3)cc2)oc2c(CNCCCCN)cccc2c1=O ? 16.1

Quick check: IC50 of COc1c(-c2ccc(-c3ccccc3)cc2)oc2c(CNCCN)cccc2c1=O ? 18.9

Quick check: IC50 of COc1c(-c2ccc(-c3ccccc3)cc2)oc2c(CNCCCCNCCCCN)cccc2c1=O ? 25.6

Quick check: IC50 of COc1c(-c2ccc(-c3ccccc3)cc2)oc2c(CNCCCN)cccc2c1=O.Cl.Cl ? 8.25

Quick check: IC50 of COc1ccc2cc(-c3oc4c(CNCCCCN)cccc4c(=O)c3OC)ccc2c1Br.Cl.Cl ? 14.7

Quick check: IC50 of NCCCNCc1c(-c2ccc(-c3ccccc3)cc2)oc2ccccc2c1=O ? 24.7

Quick check: IC50 of O=C1c2c(O)ccc(O)c2C(=O)c2c(NCCNCCO)ccc(NCCNCCO)c21 ? 21.7
